assay: molar heat capacity at constant pressure; details: 360.2 K; 101.33 kPa; Liquid; Small sample (50 mg) DSC
Readout: molar heat capacity at constant pressure (J/K/mol)

                                   compound  unit_symbol  obs_value
0                             O=S1(=O)CCCC1      J/K/mol     205.73
1  CCn1cc[n+](C)c1.N#CN=C=[N-] [1-ethyl-3-methylimidazolium dicyanamide]      J/K/mol     364.87
2  CCn1cc[n+](C)c1.N#C[S-] [1-ethyl-3-methylimidazolium thiocyanate]      J/K/mol     313.96
3  CCCCn1cc[n+](C)c1.N#C[S-] [1-butyl-3-methylimidazolium thiocyanate]      J/K/mol     350.21
4  CCn1cc[n+](C)c1.N#C[C-](C#N)C#N [1-ethyl-3-methyl-1H-imidazolium tricyanomethanide]      J/K/mol        393
5  CCCCn1cc[n+](C)c1.N#CN=C=[N-] [1-butyl-3-methylimidazolium dicyanamide]      J/K/mol     398.82
